biological target: Histone-lysine N-methyltransferase ASH1L (Homo sapiens, UniProt Q9NR48)
metric: pIC50
One number for each entry, as −log10 of the molar value.

q: Returns the measured pIC50 for the input molecule. Input: CN1CC(C(=O)NCc2ccc3c(-c4cccc(C(N)=S)c4)cn(C4CCC(S(=O)(=O)C(F)(F)F)CC4)c3c2)C1 (stereo unspecified)
a: 6.10

----------
target: UniProt:P11229; test: Agonist activity at human M1 receptor
Sequence (P11229 whole entry): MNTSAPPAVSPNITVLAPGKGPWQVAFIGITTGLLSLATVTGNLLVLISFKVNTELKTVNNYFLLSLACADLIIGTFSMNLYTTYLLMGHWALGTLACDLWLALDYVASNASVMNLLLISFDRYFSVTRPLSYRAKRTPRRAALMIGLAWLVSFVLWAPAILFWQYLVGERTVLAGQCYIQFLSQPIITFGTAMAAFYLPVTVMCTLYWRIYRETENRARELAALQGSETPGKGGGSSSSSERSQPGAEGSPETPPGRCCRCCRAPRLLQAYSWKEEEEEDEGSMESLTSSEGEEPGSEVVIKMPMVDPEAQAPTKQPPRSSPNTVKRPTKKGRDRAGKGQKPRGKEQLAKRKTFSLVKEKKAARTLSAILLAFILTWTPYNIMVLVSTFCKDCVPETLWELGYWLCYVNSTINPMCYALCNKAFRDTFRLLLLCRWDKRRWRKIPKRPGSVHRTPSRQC
metric: EC50 (µM)
Answers are plain numbers, in µM.

q: Test system UniProt:P11229; read-out EC50; what value for CCOC(=O)N1CCC(N2CCC(C(N)=O)CC2)CC1 ?
a: 3.2

Origin of values: ChEMBL document CHEMBL5380774
